quantity name: melting point

Consider Cc1cccc(C2CC2)c1Oc1nnc(Cl)cc1OC(=O)N(C)C . Its measured melting point is 136 to 138 °C

###

Here the recorded melting point is given for each entry.

These recorded examples may help you get a feel for the data.
# query smiles, melting point
rows = [
    ("Cc1cc(C)cc(C(=O)Oc2cc(Cl)nnc2Oc2c(C)cccc2C2CC2)c1", "117 to 119 °C"),
    ("Oc1cc(Cl)nnc1Oc1ccccc1", "222 to 224 °C"),
    ("CC(C)c1cccc(C2CC2)c1Oc1nnc(Cl)cc1O", "242 to 245 °C"),
    ("Cc1ccccc1C(=O)Oc1cc(Cl)nnc1Oc1ccccc1C1CCCCC1", "89 to 91 °C"),
    ("C[Si](C)(C)c1c(Cl)nnc(Oc2ccccc2)c1O", "119 to 120 °C"),
    ("Cc1cccc(C2CC2)c1Oc1nnc(Cl)cc1C(=O)[O-].[K+]", "187 to 189 °C"),
]

The compound listed as Cc1cc(C)c([N+](=O)[O-])c(Oc2nnc(Cl)cc2O)c1C shows melting point equal to 172 to 174 °C

// recorded melting point for CN(C)S(=O)(=O)n1nccc1-c1ccccc1Oc1nnc(Cl)cc1O : 151 to 152 °C

Value of measured melting point for the entry Cc1cccc(C2CC2)c1Oc1nnc(Cl)cc1OC(=O)N(C(C)C)C(C)C : 103 to 105 °C

Reported melting point for COc1ccc(OC)c(Oc2nnc(Cl)cc2O)c1 was 150 to 152 °C

// sample COc1cccc(OC)c1Oc1nnc(Cl)cc1O , its melting point was 199 to 201 °C

// Cc1cccc(C)c1Oc1nnc(Cl)cc1O : melting point value = 214 to 215 °C

So, Oc1cc(Cl)nnc1Oc1ccccc1C1OCCO1 ? Its melting point was 143 to 145 °C

Noted for Cc1cccc(C2CC2)c1Oc1nnc(Cl)cc1OS(=O)(=O)C(F)(F)F : its melting point reads 64 to 67 °C

###

Overview of recorded Herbicidal effects Cyperus serotinus for various molecules
# System: Cyperus serotinus
# experimental details: Test Example 1: herbicidal effects, paddy-field pot test
# Format: in vivo
# experimental conditions: chemical dosage 10 g/a; wettable powder applied 3 days after transplanting; judged after 25 days

# molecule, subject of test, Herbicidal effects Cyperus serotinus
measured = [
    ("Cc1ccc(C2CC2)c(Oc2nnc(Cl)cc2O)c1", "Cyperus serotinus", "5 (Growth inhibition rate; 91 to 100%)"),
    ("Oc1cc(Cl)nnc1Oc1c(F)cccc1Br", "Cyperus serotinus", "4 (Growth inhibition rate; 71 to 90%)"),
    ("Oc1cc(Cl)nnc1Oc1cccc2c1CC1CC21 (centres unmarked)", "Cyperus serotinus", "5 (Growth inhibition rate; 91 to 100%)"),
    ("Oc1cc(Cl)nnc1Oc1ccccc1C1CCC1", "Cyperus serotinus", "5 (Growth inhibition rate; 91 to 100%)"),
    ("Oc1cc(Cl)nnc1Oc1c(F)cccc1C1CC1", "Cyperus serotinus", "5 (Growth inhibition rate; 91 to 100%)"),
]

Herbicidal effects Cyperus serotinus measured on Oc1cc(Cl)nnc1Oc1c(C2CC2)ccc2ccoc12 = 4 (Growth inhibition rate; 71 to 90%)

In plain terms, Cc1ccc2ccoc2c1Oc1nnc(Cl)cc1O has a documented Herbicidal effects Cyperus serotinus of 5 (Growth inhibition rate; 91 to 100%)
